The measurements presented in this section are drawn from the supplement of paper PMC10567573.

B1: NET1 (parent)
chain: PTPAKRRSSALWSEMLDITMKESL

# Variants of: B1
# Assay Method Text: protein stability index of a GFP-peptide fusion (GPS, HEK-293T) (PSI 1-6); higher = more stable;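 further: lentivirally expressed fusions sorted by FACS into six bins by GFP to DsRed ratio, PSI derived from sequencing read proportions per bin multiplied by bin number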
# Particulars: c terminus: a fixed tail appended
Recorded Metric: protein stability index
Answers are plain numbers.

Sample records with protein stability index:
Variant String: E22Y
protein stability index: 2.82

Variant String: E22K
protein stability index: 1.48

Variant String: M20K
protein stability index: 2.75

Variant String: K21R
protein stability index: 2.33

Variant String: P1W
protein stability index: 1.89

Below are some variants; for each one, tell me its protein stability index.
1. A10K
2. E22P
3. T2L
4. L24A

[2.83, 1.72, 2.84, 2.59]

Below are some variants; for each one, tell me its protein stability index.
1. E14S
2. T2K
3. P3N
4. M20L

2.35
2.15
2.27
1.55

Below are some variants; for each one, tell me its protein stability index.
1. T2I
2. E22T
3. W12D
4. K5D

1: 2.26; 2: 3.06; 3: 5.38; 4: 2.95
